System: RARa:RXR (NR concentration 270 nM, RXRa partner concentration 90 nM)
Method Notes: PBM binding z-score (relative to random genomic background probes); higher = stronger binding; sequences stand for … in GC…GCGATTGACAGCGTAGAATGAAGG
PBM binding z-score overview

- Sequence Entry: "CAGCCTAGGTAAGGGCCAGTATAGGAGGAACGTT"
  PBM binding z-score: -0.562
- Sequence Entry: "AATACAGGGTCATCGTAGGCCAGAGAACGCACAG"
  PBM binding z-score: 5.41
- Sequence Entry: "CAAACTAGGTCAAGAGGTCTAAGTCCGCTTCCCG"
  PBM binding z-score: 2.65
- Sequence Entry: "CCTCTGAGGACAGAAGGTCAGAGCTGTCCGCTTT"
  PBM binding z-score: 2.59
- Sequence Entry: "GCGACTGGGTCATCAGCAGGTTACCATAACTTAA"
  PBM binding z-score: 3.39
- Sequence Entry: "CCGACTGGGGCAGAAAGGTTACCAGACCATCCGG"
  PBM binding z-score: 1.47
- Sequence Entry: "ATCTCCAGGTAAAAGTTCAGTGAATCCCGAGGAT"
  PBM binding z-score: 2.14
- Sequence Entry: "CGAACTAGGTCAAGGTCAAAGTCGGTTTGTGCCA"
  PBM binding z-score: 5.41
- Sequence Entry: "TAGCCTAGGTCATATCGGGCCAGTATACGCTATA"
  PBM binding z-score: 1.92
- Sequence Entry: "CGTCCAAGGCCATAGGAGGTCAGTGAAGACAGAT"
  PBM binding z-score: 2
- Sequence Entry: "TAGCCTAGGTCATGCAGGGGCCAGTATAGAAAGC"
  PBM binding z-score: 3.39
- Sequence Entry: "CGAACTACGTCATTGACAGGACAGTGAATAGTAA"
  PBM binding z-score: -0.22

The reported measurements were obtained from the supplement of paper PMC6555819.
